target_entity: Luciferin 4-monooxygenase (Photinus pyralis)
assay_info: firefly luciferase enzyme inhibitors, primary screen, biochemical, luminescence, purified enzyme, 2006 set (AID 1141);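 note: cell-free assay with purified firefly luciferase at 100 ng per well in PBS; test concentration not given here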
condition_label: SteadyGlo luminescence, 30 min, higher = more signal, called active from +8 up or from −8 down
Listed below: z-score values for each entry.
Answer with a bare number; do not write a unit.

COc1cc(C(O)C2C=CC3C(=O)N(Cc4ccccc4)C(=O)C3N2n2cnnc2)cc(OC)c1OC (configuration not stated) | -2.17

Record C=CCC(OC(C)=O)[C@@H]1[C@@H](N(Cc2ccc(-c3ccccc3)cc2)C(=O)c2ccc(C)cc2)c2cc(OCCCO)ccc2N1C(=O)Cc1ccc2ccccc2c1 (some centres not stated) ; system Luciferin 4-monooxygenase (Photinus pyralis); z-score = -2.19

Record CC1CC/C=C\[C@H]2OC34C=CCN(C(C)(C)C)C(=O)[C@H]3N(C(CO)C(C)C)C(=O)[C@@H]4C2C(=O)O1 (some centres not stated) ; system Luciferin 4-monooxygenase (Photinus pyralis); z-score = -0.0671

Log: Luciferin 4-monooxygenase (Photinus pyralis), compound COC(=O)[C@@]1(Cc2ccc(OC)cc2)[C@H]2c3cc(C(=O)N4CCCC4)n(Cc4ccc(S(C)(=O)=O)cc4)c3C[C@H]2CN1C(=O)c1ccccc1 , z-score = 0.922

Bench note, Luciferin 4-monooxygenase (Photinus pyralis): entry CCOC(=O)C[C@H]1[C@H](OC(=O)c2ccccc2-c2ccccc2)[C@@H](NC(=O)c2ccc3ccccc3n2)c2cc(OCCCO)ccc2N1C(=O)c1ccccc1 , its z-score = 0.272

Item CCCNC(=O)[C@@]1(Sc2ccc(C)cc2)CC(=O)N(C2CCCCC2)[C@@H]1c1ccc(CO)cc1I was tested on Luciferin 4-monooxygenase (Photinus pyralis); the reported z-score is -0.0779

Known value: Luciferin 4-monooxygenase (Photinus pyralis) z-score of the compound CCCCNC(=O)c1ccc(C#C[Si](C(C)C)(C(C)C)C(C)C)c(OC(C)=O)c1 equals 0.683
